# Tested on: RPE cells (ARPE-19)
# MEASUREMENT PROTOCOL: Focus (drusen-like structure) formation suppression in EMT induction model of RPE cells
# Assay type: cell-based, human
# DETAILS: Homo sapiens; Table 1; EMT-induced ARPE-19, compound added simultaneously, 48 hours; read-out: IC50 (Focus formation suppressing rate, EMT suppressive effect)
The following molecules are listed with their measured pIC50 values.
For clarity, pIC50 is expressed as the negative log10 of concentration in mol/L.

Worked examples follow.
• O=C(Nc1cccc2c(=O)cc(-c3nnn[nH]3)oc12)c1ccc(OCCCCc2ccccc2)cc1 = 5.96
• CC(C(=O)O)c1ccc(-c2ccccc2)c(F)c1 (centres unmarked) = 4.49
• CC(C(=O)O)c1ccc2c(c1)CC(=O)c1ccccc1S2 (centres unmarked) = 4.78
• CC(C)c1ccc2oc3nc(N)c(C(=O)O)cc3c(=O)c2c1 = 4.49
• O=C(O)CCc1nc(-c2ccccc2)c(-c2ccccc2)o1 = 4.21
• CC(/C=C1\SC(=S)N(CC(=O)O)C1=O)=C\c1ccccc1 = 4.77
• COc1cc(C(=O)NS(=O)(=O)c2ccccc2C)ccc1Cc1cn(C)c2ccc(NC(=O)OC3CCCC3)cc12 = 5.42

Read the next record carefully.
I'm curious: which pIC50 was measured for CC(C)Cc1ccc(C(C)C(=O)O)cc1 (centres unmarked) tested on RPE cells (ARPE-19)?
4.74
